- assay-procedure: Cell-based assay, TGFb1 (Cell IC50)
pIC50: −log10 of the molar value.
quantity-measured: pIC50

These solved cases illustrate the format of a correct answer.
compound=C[C@@H]1CNC[C@H](C)N1c1ccc(-c2cnc3c(-c4cccc5c(CO)cccc45)cnn3c2)cc1 reading=5.81
compound=CN1CCC(c2ccc(-c3cnc4c(-c5cccc(C(C)(C)O)c5)cnn4c3)cc2)CC1 reading=4.77
compound="CC(O)c1cccc(-c2cnn3cc(-c4ccc(CCN5CCCCC5)cc4)cnc23)c1 (stereo not shown)" reading=8.92
compound=c1cc(-c2cc[nH]n2)cc(-c2cnn3cc(-c4ccc(CCN5CCCCC5)cc4)cnc23)c1 reading=4.82
compound=C[C@@H]1CNC[C@H](C)N1c1ccc(-c2cnc3c(-c4cccc5c(C#N)cccc45)cnn3c2)cc1 reading=5.59

(A) CCNS(=O)(=O)c1cccc(-c2cnn3cc(-c4ccc(N5[C@H](C)CNC[C@@H]5C)cc4)cnc23)c1
(B) CNS(=O)(=O)c1cccc(-c2cnn3cc(-c4ccc(N5[C@H](C)CNC[C@@H]5C)cc4)cnc23)c1
(C) CC(C)(CN1CCCCC1)Oc1ccc(-c2cnc3c(-c4cccc(S(C)(=O)=O)c4)cnn3c2)cc1
(D) N/C(=N/O)c1ccc(-c2cnn3cc(-c4ccc(N5CCNCC5)cc4)cnc23)cc1
Arrange items by their pIC50 values in increasing order. Put the labels in the requested order and list them out. D, C, B, A
(D: 5.17, C: 5.48, B: 6.10, A: 6.37)

----------
- target-of-assay: ALK2 (Homo sapiens, UniProt Q04771)
- Sequence (Q04771 21-509): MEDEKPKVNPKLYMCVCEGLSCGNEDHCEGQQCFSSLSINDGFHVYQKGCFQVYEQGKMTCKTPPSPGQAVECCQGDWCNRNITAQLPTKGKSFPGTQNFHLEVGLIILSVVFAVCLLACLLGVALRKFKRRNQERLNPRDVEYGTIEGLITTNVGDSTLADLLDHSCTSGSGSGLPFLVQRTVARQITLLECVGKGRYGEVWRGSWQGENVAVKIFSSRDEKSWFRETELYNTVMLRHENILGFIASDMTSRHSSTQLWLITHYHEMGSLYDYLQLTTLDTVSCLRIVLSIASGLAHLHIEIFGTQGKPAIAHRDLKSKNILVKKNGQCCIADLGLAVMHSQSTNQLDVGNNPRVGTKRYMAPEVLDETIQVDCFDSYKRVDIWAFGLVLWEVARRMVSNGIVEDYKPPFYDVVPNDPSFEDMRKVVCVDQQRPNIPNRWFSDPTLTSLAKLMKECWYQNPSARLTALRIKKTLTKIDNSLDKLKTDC
- assay-procedure: TR-FRET enzymatic ALK kinase assay, ALK2
pIC50: −log10 of the molar value.
quantity-measured: pIC50

(a) CNC(=O)c1ccc(-c2cnn3cc(-c4ccc(N5CCNCC5)cc4)cnc23)c2ccccc12
(b) C[C@@H]1CNC[C@H](C)N1c1ccc(-c2cnc3c(-c4cc(C(F)(F)F)cc(S(C)(=O)=O)c4)cnn3c2)cc1
Given the two records a and b , choose the one whose pIC50 value is lower. Your choice should be expressed through its label. a

----------
- target-of-assay: UniProt:O00238
- Sequence (O00238 14-502): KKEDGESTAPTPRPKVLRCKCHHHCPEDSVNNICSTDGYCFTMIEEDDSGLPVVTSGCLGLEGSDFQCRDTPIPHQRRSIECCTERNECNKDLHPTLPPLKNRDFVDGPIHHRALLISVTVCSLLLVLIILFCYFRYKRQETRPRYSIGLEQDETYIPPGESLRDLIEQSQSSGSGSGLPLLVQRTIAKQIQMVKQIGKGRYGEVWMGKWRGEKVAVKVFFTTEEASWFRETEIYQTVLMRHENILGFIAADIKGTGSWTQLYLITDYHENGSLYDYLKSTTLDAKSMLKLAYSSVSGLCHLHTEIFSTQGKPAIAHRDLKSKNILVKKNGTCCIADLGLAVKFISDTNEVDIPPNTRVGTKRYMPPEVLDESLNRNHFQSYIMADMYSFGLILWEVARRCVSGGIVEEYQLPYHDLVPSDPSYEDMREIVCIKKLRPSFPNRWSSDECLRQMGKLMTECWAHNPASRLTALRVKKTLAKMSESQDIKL
- assay-procedure: TR-FRET enzymatic ALK kinase assay, ALK6
pIC50: −log10 of the molar value.
Examples of compounds with documented pIC50 follow.

Recorded result, CN(C)CCc1ccc(-c2cnc3c(-c4ccc(S(N)(=O)=O)c5ccccc45)cnn3c2)cc1 , pIC50: < 5.00

Recorded result, NS(=O)(=O)c1ccc(-c2cnn3cc(-c4ccc(OC5(CN6CCCC6)CC5)cc4)cnc23)c2ccccc12 , pIC50: < 5.00

Recorded result, CS(=O)(=O)c1cccc(-c2cnn3cc(-c4ccc(OCCN5CCCC5)cc4)cnc23)c1 , pIC50: < 5.00

Recorded result, C[C@@H]1CNC[C@H](C)N1c1ccc(-c2cnc3c(-c4ccc(F)c(-c5nnn[nH]5)c4)cnn3c2)cc1 , pIC50: 6.48

Recorded result, C[C@@H]1CNC[C@H](C)N1c1ccc(-c2cnc3c(-c4ccc(C(N)=O)c5ccccc45)cnn3c2)cc1 , pIC50: 6.65

Recorded result, C[C@@H]1CNC[C@H](C)N1c1ccc(-c2cnc3c(-c4ccc(C#N)c5ccccc45)cnn3c2)cc1 , pIC50: 5.01

Recorded result, C[C@@H]1CNC[C@H](C)N1c1ccc(-c2cnc3c(-c4ccc(S(N)(=O)=O)c(N)c4)cnn3c2)cc1 , pIC50: < 5.00

Recorded result, CN(C)C(=O)c1ccc(-c2cnn3cc(-c4ccc(N5CCNCC5)cc4)cnc23)c2ccccc12 , pIC50: 4.12
